Target: purified HLA-DR molecule DRB1*0401 (human)
Assay: competition with 125I-labelled peptide for purified HLA
recorded_metric: IC50 (nM)

binder: GGEVRNDDVDQSLII (modifications not checked) [… (Flu.PB2.250)]
recorded_metric: IC50
units_symbol: nM
observed_measurement: 2160
--
binder: LRNLMSQSRTREILT (modifications not checked) [LRNLMS1SRTREILT (Flu.PB2.10)]
recorded_metric: IC50
units_symbol: nM
observed_measurement: 4970
--
binder: PVHFRNQVKIRRRVD (modifications not checked) [… (Flu.PB2.135)]
recorded_metric: IC50
units_symbol: nM
observed_measurement: 1300
--
binder: QRGILEDEQMYQKCC (modifications not checked) [… (Flu.PB1.682)]
recorded_metric: IC50
units_symbol: nM
observed_measurement: 2560
--
binder: KYPITADKRIMEMIP (modifications not checked) [… (Flu.PB2.57)]
recorded_metric: IC50
units_symbol: nM
observed_measurement: 9390
--
binder: MVAYMLERELVRKTR (modifications not checked) [… (Flu.PB2.205)]
recorded_metric: IC50
units_symbol: nM
observed_measurement: 166
--
binder: RGILEDEQMYQKCCN (modifications not checked) [… (Flu.PB1.683)]
recorded_metric: IC50
units_symbol: nM
observed_measurement: 5740
